Reference source for all entries: patent US20250313625A1

Target: T1, mFc tagged human LAG3 ECD recombinant protein (human, UniProt P18627 23-450)
T1 construct: extracellular domain; purchased from Biointron; not shown: mouse IgG Fc (mFc) tag
T1 sequence (looked up): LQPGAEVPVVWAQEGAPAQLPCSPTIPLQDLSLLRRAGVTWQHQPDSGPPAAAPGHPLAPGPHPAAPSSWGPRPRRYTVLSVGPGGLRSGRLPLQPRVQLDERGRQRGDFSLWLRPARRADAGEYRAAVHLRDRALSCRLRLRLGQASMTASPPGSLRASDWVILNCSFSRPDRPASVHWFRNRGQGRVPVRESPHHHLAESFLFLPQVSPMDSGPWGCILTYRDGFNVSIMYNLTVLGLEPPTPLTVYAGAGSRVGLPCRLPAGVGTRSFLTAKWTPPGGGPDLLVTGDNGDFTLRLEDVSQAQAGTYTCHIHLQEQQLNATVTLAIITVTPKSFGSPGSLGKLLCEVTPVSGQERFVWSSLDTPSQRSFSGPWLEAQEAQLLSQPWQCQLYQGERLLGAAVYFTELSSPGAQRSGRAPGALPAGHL
Experiment: competitive FACS: mFc tagged human LAG3 ECD binding to MHC II on Raji cells
Endpoint name: %Blocking at 8 nM (%)
API: value field is a number in %; no unit string.

hu029.40 (antibody, V domains shown, humanized from 029c) VH: QVQLVESGGGLVKPGGSLRLSCAASGFTFSSYAMSWVRQAPGKRLEWVAYVTSGGDYIYYADTVKGRFTISRDDAKNSLYLQMNSLRAEDTAMYYCTRVAYDYEWYFDVWGQGALVTVSS VL: DIQMTQSPSSVSTSVGDRVTITCKASQDVTTAVAWYQQKPGKAPKLLIYSASYRYTGVPSRFSGSGSGTDFTFTISSVQPEDFATYYCQQHDSSPWTFGQGTKLEIK :: 99.1
021c (antibody, human IgG4, V domains shown, human IgG4 S228P / kappa chimeric antibody; also called chimeric antibody 021; not shown: human kappa light chain constant region (pcDNA3.4-hIgGk vector)) VH: DIQLQESGPGLVKPSQSLSLTCSVTGYSITSGYYWNWIRQFPGNKLEWMGDISYDGGNNYNPSLKNRISITRDTSKNQFFLKLNSVTTEDTATYYCARDITLTGAMDYWGQGTSVTVSS VL: DIVLTQSPASLAVSLGQRATISCRASESVDNYGISFMHWYQQRPGQPPKLLIYRASNLESGIPARFSGSGSRTDFTLTINPVETDDVATYYCQQSNKDPYTFGGGTKLEIK :: 76.8

Look up and report measured %Blocking at 8 nM for this entry: hu021.269 (antibody, V domains shown, humanized from 021c) VH: QVQLQESGPGLVKPSQTLSLTCTVSGYSITSGYYWNWIRQHPGNKLEWIGDISYDGGNNYNPSLKNRVTISRDTSKNQFSLKLSSVTAADTAVYYCARDITLTGAMDYWGQGTTVTVSS VL: EIVLTQSPATLSLSPGERATLSCRASESVDNYGISFMHWYQQKPGQAPRLLIYRASNRESGIPARFSGSGSRTDFTLTISSLEPEDFAVYYCQQSNKDPYTFGQGTKLEIK
70.2

Give a short answer stating reported %Blocking at 8 nM for hu021.279 (antibody, V domains shown, humanized from 021c; also called hu21.279) VH: QIQLQESGPGLVKPGQTLSLTCTVSGYSITSGYYWTWIRQHPGNKLEWIGDISYDAGNNYNPSLKNRITISRDTSKNQFSLKLSSVTAEDTATYYCARDITLTGAMDYWGQGTTVTVSS VL: EIVLTQSPATLSLSPGERATLSCRASESVDNYGISFMHWYQQKPGQAPRLLIYRASNLESGIPARFSGSGSGTDFTLTISSLEPEDFAVYYCQQSNKDPYTFGQGTKLEIK .
98.5

Please report the measured %Blocking at 8 nM for hu029.55 (antibody, V domains shown, humanized from 029c) VH: QVQLVESGGGLVKPGGSLRLSCAASGFTFSSYAMSWIRQAPGKGLEWVSYVTSGGDYIYYADTVKGRFTISRDDAKNSLYLQMNSLRAEDTAVYYCTRVAYDYEWYFDVWGQGTLVTVSS VL: DIQMTQSPSSVSASVGDRVTITCKASQDVTTAVAWYQQKPGKAPKLLIYSASYRYTGVPSRFSGSGSGTDFTLTISSLQPEDFATYYCQQHDSSPWTFGQGTKLEIK
98.8
